biological target: Inhibitor of nuclear factor kappa-B kinase subunit alpha (Homo sapiens, UniProt O15111); assay: Inhibition of human recombinant IKK1
Sequence (O15111 whole entry): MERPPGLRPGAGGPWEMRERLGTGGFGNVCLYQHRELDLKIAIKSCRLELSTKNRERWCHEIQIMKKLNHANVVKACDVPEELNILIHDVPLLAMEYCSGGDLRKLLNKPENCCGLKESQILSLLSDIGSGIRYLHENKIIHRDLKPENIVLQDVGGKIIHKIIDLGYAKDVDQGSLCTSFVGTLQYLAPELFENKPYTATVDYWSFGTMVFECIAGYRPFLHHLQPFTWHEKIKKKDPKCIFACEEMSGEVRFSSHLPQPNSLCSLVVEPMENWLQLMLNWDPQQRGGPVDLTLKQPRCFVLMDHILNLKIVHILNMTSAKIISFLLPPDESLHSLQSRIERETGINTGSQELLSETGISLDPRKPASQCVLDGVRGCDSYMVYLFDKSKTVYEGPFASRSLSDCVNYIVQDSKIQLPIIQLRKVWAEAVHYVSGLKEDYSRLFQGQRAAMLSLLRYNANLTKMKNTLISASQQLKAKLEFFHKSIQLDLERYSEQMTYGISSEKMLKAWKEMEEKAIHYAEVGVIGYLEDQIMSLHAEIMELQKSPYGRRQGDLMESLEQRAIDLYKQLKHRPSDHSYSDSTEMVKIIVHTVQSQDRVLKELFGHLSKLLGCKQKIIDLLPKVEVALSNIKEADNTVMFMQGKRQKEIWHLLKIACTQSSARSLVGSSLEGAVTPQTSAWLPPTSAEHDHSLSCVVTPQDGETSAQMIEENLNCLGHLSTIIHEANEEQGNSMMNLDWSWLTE
OUTCOME MEASURE: pIC50
// pIC50: -log10(molar conc.)

Task: Supply reported pIC50 belonging to this molecule: `Cc1cc2c(-c3ccc(N(C)S(C)(=O)=O)cc3)ccnc2[nH]1`
Result: 5.10

Task: Supply reported pIC50 belonging to this molecule: `c1ccc(-c2ccnc3[nH]ccc23)cc1`
Result: 5.40

Task: Supply reported pIC50 belonging to this molecule: `Cc1cc2c(-c3ccc(S(=O)(=O)NC4CCS(=O)(=O)CC4)cc3)ccnc2[nH]1`
Result: 7.90

Task: Supply reported pIC50 belonging to this molecule: `CNCCNS(=O)(=O)c1ccc(-c2ccnc3[nH]ccc23)cc1`
Result: 6.50

Task: Supply reported pIC50 belonging to this molecule: `NS(=O)(=O)c1ccc(-c2ccnc3[nH]ccc23)cc1`
Result: 6.80

Task: Supply reported pIC50 belonging to this molecule: `Cc1cc2c(-c3ccc(S(=O)(=O)NCCO)cc3)ccnc2[nH]1`
Result: 6.50

Task: Supply reported pIC50 belonging to this molecule: `NS(=O)(=O)c1cccc(-c2ccnc3[nH]ccc23)c1`
Result: 5.90

Task: Supply reported pIC50 belonging to this molecule: `CN(C)CCNS(=O)(=O)c1ccc(-c2ccnc3[nH]ccc23)cc1`
Result: 6.10

Task: Supply reported pIC50 belonging to this molecule: `Cc1cc2c(-c3ccc(S(=O)(=O)N(C)CCO)cc3)ccnc2[nH]1`
Result: 5.50

Task: Supply reported pIC50 belonging to this molecule: `NCCNS(=O)(=O)c1ccc(-c2ccnc3[nH]ccc23)cc1`
Result: 6.60

Task: Supply reported pIC50 belonging to this molecule: `Cc1cc2c(-c3ccc(S(=O)(=O)NCCN)cc3)ccnc2[nH]1`
Result: 6.90

Task: Supply reported pIC50 belonging to this molecule: `Cc1cc2c(-c3ccc(S(=O)(=O)N(C)C4CCS(=O)(=O)CC4)cc3)ccnc2[nH]1`
Result: 6.00

----------
Molecular target: Inhibitor of nuclear factor kappa-B kinase subunit beta (Homo sapiens, UniProt O14920)
Sequence (O14920 whole entry): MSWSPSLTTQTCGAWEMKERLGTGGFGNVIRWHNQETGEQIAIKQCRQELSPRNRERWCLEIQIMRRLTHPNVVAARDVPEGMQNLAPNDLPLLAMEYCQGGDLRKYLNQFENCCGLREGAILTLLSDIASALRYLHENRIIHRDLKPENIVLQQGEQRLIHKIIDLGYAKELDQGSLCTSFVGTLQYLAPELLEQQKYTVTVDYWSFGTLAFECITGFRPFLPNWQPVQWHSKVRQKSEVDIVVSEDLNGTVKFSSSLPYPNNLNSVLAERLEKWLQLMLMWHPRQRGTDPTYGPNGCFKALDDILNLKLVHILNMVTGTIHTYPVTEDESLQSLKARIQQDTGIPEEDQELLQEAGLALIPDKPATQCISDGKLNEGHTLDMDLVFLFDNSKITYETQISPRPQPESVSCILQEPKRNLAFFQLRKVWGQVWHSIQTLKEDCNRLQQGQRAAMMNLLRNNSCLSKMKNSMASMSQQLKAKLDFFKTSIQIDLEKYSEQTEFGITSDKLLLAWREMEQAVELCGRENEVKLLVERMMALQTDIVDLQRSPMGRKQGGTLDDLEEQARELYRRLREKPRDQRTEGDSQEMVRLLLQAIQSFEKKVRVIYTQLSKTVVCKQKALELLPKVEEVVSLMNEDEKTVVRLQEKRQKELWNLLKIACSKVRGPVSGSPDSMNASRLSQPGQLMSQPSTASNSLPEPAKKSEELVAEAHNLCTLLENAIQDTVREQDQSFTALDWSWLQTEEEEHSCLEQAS
Assay: Inhibition of human recombinant IKK2
OUTCOME MEASURE: pIC50
// pIC50: -log10(molar conc.)

Task: Supply reported pIC50 belonging to this compound: `O=S1(=O)CCC(NS(=O)(=O)c2ccc(-c3ccnc4[nH]ccc34)cc2)CC1`
Result: 7.10

Task: Supply reported pIC50 belonging to this compound: `Cc1cc2c(-c3ccc(S(=O)(=O)NC4CCS(=O)(=O)CC4)cc3)ccnc2[nH]1`
Result: 7.70

Task: Supply reported pIC50 belonging to this compound: `Cc1cc2c(-c3ccc(S(=O)(=O)N(C)CCO)cc3)ccnc2[nH]1`
Result: 7.40
